- assay-details: Plasma pharmacokinetic profile in mice (I.V. and P.O.)
- measurement-context: mouse, plasma, iv, 10 mg/kg, AUC0–t, mice, I.V., n=3
readout-kind: AUC(0-t) (ng·h/mL)
Hi! Could you send only the number? It should be in ng·h/mL, unit omitted.

I am curious: what AUC(0-t) value has been reported for COc1nc2cc(F)c(F)cc2nc1NC(=O)NC1CCN(Cc2cc3ccccc3[nH]2)CC1 ? 4550

----------
- subject-of-test: human recombinant MCH-1 receptor (Homo sapiens)
- Sequence (Q99705 whole entry): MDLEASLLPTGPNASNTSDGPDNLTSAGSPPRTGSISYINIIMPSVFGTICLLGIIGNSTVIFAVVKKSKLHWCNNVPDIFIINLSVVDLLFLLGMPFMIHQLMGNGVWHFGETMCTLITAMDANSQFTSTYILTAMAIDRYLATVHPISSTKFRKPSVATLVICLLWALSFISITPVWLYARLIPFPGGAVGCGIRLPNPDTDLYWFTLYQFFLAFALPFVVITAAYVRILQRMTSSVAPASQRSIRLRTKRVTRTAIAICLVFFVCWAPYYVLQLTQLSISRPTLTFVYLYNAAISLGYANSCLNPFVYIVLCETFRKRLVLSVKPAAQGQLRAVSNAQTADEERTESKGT
- assay-details: Time-resolved fluorescence (TRF)-based MCHR1 receptor-binding assay with Eu-MCH
- measurement-context: TRF-based binding, 2 nM Eu-MCH
// reported IC50 for each item listed
Numeric only. Scale: nM

{"columns": ["compound", "subject-of-test", "uom", "value-observed"],
 "data": [
  ["COc1nc2cc(F)c(F)cc2nc1NC(=O)NC1CCN(Cc2ccc3[nH]ccc3c2)CC1 [KRX-104156]", "human recombinant MCH-1 receptor (Homo sapiens)", "nM", 50]
]}

Quick check: IC50 on human recombinant MCH-1 receptor (Homo sapiens), item COc1nc2cc(F)c(F)cc2nc1NC(=O)NC1CCN(Cc2ccc3[nH]ncc3c2)CC1 [KRX-104161] ? 10

Likewise for COc1nc2cc(F)c(F)cc2nc1NC(=O)NC1CCN(Cc2cc3ccccc3[nH]2)CC1 [KRX-104130] ? 20

Note, next up: COc1nc2cc(F)c(F)cc2nc1NC(=O)NC1CCN(Cc2cn(C(C)=O)c3ccccc23)CC1 [KRX-104165] 60

CCN(CC)CCN(C)c1cnc2cc(NC(=O)c3ccc(-c4ccc(Cl)cc4)cc3)ccc2n1 [KRX-104137] , same question. 10

From: paper PMC8998904
